Cited source for all entries: paper PMC6155021

Readings of Non-normalized tail current V0.5 for the listed compounds
target: KCNQ2/3 channels (Homo sapiens, UniProt O43525+O43526); assay: Two-electrode voltage-clamp of KCNQ2/3 channels expressed in Xenopus laevis oocytes; type: cell-based; settings: KCNQ2/3; 100 µM
READOUT_LABEL: Non-normalized tail current V0.5 (mV)

INSERT INTO measurements (compound, readout_units, quantitative_result) VALUES
  ('CCC1=C(O)C(=O)CC1 [3-ethyl-2-hydroxy-2-cyclopenten-1-one]', 'mV', -40.1),
  ('CCCCCCCC/C=C\CCCCCCCC(N)=O [Oleamide, oleamide]', 'mV', -41.9),
  ('CC(=O)c1c(O)c(C)c(O)c(Cc2c(O)c3c(c(C(=O)/C=C/c4ccccc4)c2O)OC(C)(C)C=C3)c1O', 'mV', -56.6),
  ('O=C(O)/C=C/CC(=O)O', 'mV', -40.8),
  ('C/C=C/C=C/C(=O)O', 'mV', -39.9),
  ('C=CCCCCC', 'mV', -41.9),
  ('Oc1ccccc1S', 'mV', -34.5);

====

Readings of Non-normalized tail current V0.5 for the listed compounds
biological target: KCNQ2/3 channels (Homo sapiens, UniProt O43525+O43526); assay: Two-electrode voltage-clamp of KCNQ2/3 channels expressed in Xenopus laevis oocytes; type: cell-based; conditions: KCNQ2/3; 10 µM
READOUT_LABEL: Non-normalized tail current V0.5 (mV)

INSERT INTO measurements (compound, readout_label, quantitative_result) VALUES
  ('O=C(O)/C=C/CC(=O)O', 'Non-normalized tail current V0.5', -42.1),
  ('CC(=O)c1c(O)c(C)c(O)c(Cc2c(O)c3c(c(C(=O)/C=C/c4ccccc4)c2O)OC(C)(C)C=C3)c1O', 'Non-normalized tail current V0.5', -51.9),
  ('CCCCCCCC/C=C\CCCCCCCC(N)=O [Oleamide, oleamide]', 'Non-normalized tail current V0.5', -39.4),
  ('Oc1ccccc1S', 'Non-normalized tail current V0.5', -43.2),
  ('CCOC(=O)Nc1ccc(NCc2ccc(F)cc2)cc1N [Retigabine, retigabine, reference compound]', 'Non-normalized tail current V0.5', -61.8),
  ('CCCCCCCCCCCCCCCC(=O)O', 'Non-normalized tail current V0.5', -43.1);

====

biological target: KCNQ2/3 channels (Homo sapiens, UniProt O43525+O43526); assay: Two-electrode voltage-clamp of KCNQ2/3 channels expressed in Xenopus laevis oocytes; type: cell-based; conditions: KCNQ2/3; 0.1 µM
Readings of Slope for the listed compounds
READOUT_LABEL: Slope (mV)

INSERT INTO assay_data (compound, quantitative_result) VALUES
  ('CC(=O)c1c(O)c(C)c(O)c(Cc2c(O)c3c(c(C(=O)/C=C/c4ccccc4)c2O)OC(C)(C)C=C3)c1O', 7.5),
  ('O=C(O)/C=C/CC(=O)O', 4.4),
  ('Oc1ccccc1S', 5.4),
  ('CCCCCCCC/C=C\CCCCCCCC(N)=O [Oleamide, oleamide]', 6.5),
  ('CCCCCCCCCCCCCCCC(=O)O', 7.9);

====

biological target: KCNQ2/3 channels (Homo sapiens, UniProt O43525+O43526); assay: Two-electrode voltage-clamp of KCNQ2/3 channels expressed in Xenopus laevis oocytes; assay type: cell-based; conditions: KCNQ2/3; 0.1 µM
Readings of Non-normalized tail current V0.5 for the listed compounds
READOUT_LABEL: Non-normalized tail current V0.5 (mV)

INSERT INTO measurements (compound, readout_units, quantitative_result) VALUES
  ('Oc1ccccc1S [2-Mercaptophenol, 2-mercaptophenol]', 'mV', -40.9),
  ('CCCCCCCCCCCCCCCC(=O)O [Palmitic Acid, palmitic acid]', 'mV', -43.6),
  ('CCCCCCCC/C=C\CCCCCCCC(N)=O [Oleamide, oleamide]', 'mV', -41.9),
  ('O=C(O)/C=C/CC(=O)O [Glutaconic Acid, glutaconic acid]', 'mV', -40.4),
  ('CC(=O)c1c(O)c(C)c(O)c(Cc2c(O)c3c(c(C(=O)/C=C/c4ccccc4)c2O)OC(C)(C)C=C3)c1O [MTX, mallotoxin]', 'mV', -47.3);
